Overview of reported TGI across a group of compounds:
# Test system: M19-MEL melanoma
# procedure text: NCI tumour cell line growth inhibition, 48 h

CCC(=O)OC1CCn2c1nc1c2C(=O)C(C)=C(NC(C)=O)C1=O (centres undefined); 3.31 µM

Problem: # TGI lookup, item O=C1OC(CC(=O)c2ccc(F)cc2)C(Cl)=C1Cl (centres undefined)
Solution: > 100 µM

Problem: # TGI lookup, item `Cc1cc(N(CCC#N)S(=O)(=O)c2ccccc2)ccc1C=Nc1cccc(C(=O)O)c1`
Solution: > 100 µM

Problem: # TGI lookup, item NC1=NN(c2ccccc2)C(=O)C1C(=O)C(=O)Nc1ccc(Cl)cc1 (centres undefined)
Solution: > 100 µM

====

# System: NCI-H460 lung
# procedure text: NCI tumour cell line growth inhibition, 48 h
measurement name: TGI

Cc1ccc2nc(NC(=O)C(=O)C(C(=O)c3ccc4ccccc4c3)C3OC(=O)c4ccccc43)sc2c1 (stereo unspecified); 18 µM
NC(Cc1ccc(O)cn1)C(=O)NC(C(=O)O)c1ccccc1 (stereo unspecified); > 100 µM
O=C1NC(=O)C(C(=O)C(=O)Nc2cc(Cl)ccc2Cl)C(=O)N1; > 100 µM
CC1(CO)C(O)CCC2(C)C1CCC1CC3CC12CCC3(O)CO (stereo unspecified); > 100 µM
c1ccc2c(c1)[nH]c1cnc3c4ncccc4[nH]c3c12; > 100 µM

In the following, a different compound is considered.
Problem: # TGI lookup, item `COc1ccccc1N1CCN(CCCCNC(=O)c2ccc([N+](=O)[O-])o2)CC1`
Solution: 12.5 µM

====

# Tested on: CCRF-CEM leukemia
# procedure text: NCI tumour cell line growth inhibition, 48 h
Overview of reported TGI across a group of compounds:

Example entries and their recorded answers appear below.
CC1CC(=O)Nc2ccc(Cl)cc2N1C(=O)CN1CCC(CCCCN(C)C)CC1 (centres undefined); > 100 µM
O=S(=O)(C1=CC(S(=O)(=O)c2ccccc2)COC1)c1ccccc1 (centres undefined); > 100 µM
Nc1nc(Cl)cc(NCC2(CO)CCCCC2)n1; > 100 µM
COc1ccc(-c2nn(-c3cccc(Cl)c3)cc2/C=C2\NC(=S)N(c3ccc(Cl)cc3)C2=O)cc1; 11 µM
Cc1ccc2c(c1)[n+](=O)c(C(=O)c1cccs1)c(C(F)(F)F)n2[O-]; 50 µM
CC12NC(=C(C#N)C#N)C(C#N)=C3NC(N)=C(C#N)C(=C31)Oc1ccccc12 (centres undefined); > 100 µM
C[C@@H](C1CC[C@H]2[C@@H]3[C@@H]4O[C@@H]4[C@@]4(O)CC=CC(=O)[C@]4(C)[C@H]3C[C@H](O)[C@]12C)[C@H]1C[C@]2(C)O[C@]2(C)C(=O)O1 (some centres undefined); > 100 µM
C[C@H]1CCC/C=C/C2CC(OC(=O)CN(C)C)CC2C(OC(=O)CN(C)C)/C=C/C(=O)O1 (some centres undefined); > 40.6 µM

In the following, a different compound is considered.
Problem: # TGI lookup, item CC(=O)N1C(C(=O)NN2CCOCC2)CSC1c1ccccc1 (centres undefined)
Solution: > 100 µM

====

# Test system: U251 CNS
measurement name: GI50

Example entries and their recorded answers appear below.
Cc1cccc2c(C3=C(c4cn(C)c5ccccc45)C(=O)NC3=O)cn(C)c12; > 25 µM
CCN(C(=O)N1CCN(c2cc3c(cc2F)c(=O)c(C(=O)O)cn3C2CC2)CC1)c1nc(-c2ccccc2)cs1; 3.25 µM
COc1cccc(/C=N/[N-]C(=O)c2ccncc2)c1[O-].[Mn+2].[OH3+]; 5.45 µM
CC(C)C[C@H](CC(=O)O)C(=O)N[C@@H](Cc1c[nH]c2ccccc12)C(=O)N[C@@H](C)c1ccccc1; > 25 µM
CC1(C)OB(c2ccc(N(CCOS(C)(=O)=O)CCOS(C)(=O)=O)cc2)OC1(C)C; 8.66 µM

In the following, a different compound is considered.
Problem: Query for U251 CNS: what GI50 does the record show for `Cc1cc2c(cc1Cl)SC(N(c1ccccc1Cl)S(=O)(=O)c1ccc(Br)s1)=NS2(=O)=O` ?
Solution: 16.5 µM
